System: LXRb homodimer (NR concentration 270 nM)
Test: PBM binding z-score (relative to random genomic background probes); higher = stronger binding; sequences stand for … in GC…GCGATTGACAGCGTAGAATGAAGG
Classification field: TRUE = PBM binding z-score at or over 0.3; FALSE = PBM binding z-score under 0.3.

These solved cases illustrate the format of a correct answer.
record-sequence	category-label
GATACAGGGTCAGCTGGAGGCCAGAGTATGGAAA	FALSE
CTTGCTAGGTCATGGTCAGCTAATCTACAGTATG	FALSE
TCGTGTAGGTTAGTCGGGGCATTCAGCCAACATA	FALSE
TTACCACGGTGAGCTGAGGTCGTTGATCCAACTC	FALSE
CCTGCTAGGTCATGGTCAGCTTATCTACAGTATG	FALSE

// inclusive: PBM binding z-score at least 0.3? input: CCAGACAGGTGAGATGGTAACTCAGCCTCGATTA FALSE

Same for CCTACTGGGCCAAATGTCATTGATTCCAATGCTC FALSE

Same for AATACAGGGTCATCGTAGGCCAGCGTACGCACAG TRUE

Same for TCATATAGGTAATACACGTGAAAGTCGGCATCTA TRUE

Same for CCTAGCAGGACAGGGTCACTCAAGCATTTCGCTT FALSE

Same for ACTATTAGTTGACTGAGGGCAACCGATACGACGC TRUE

Same for GCTGCTAGGACAGGTTGGTCAGCTAACGGGTACG FALSE

Same for CATACAGGGTCAGCTAGGCCAGAGTCGGGACGGC TRUE

Same for CCTTACGGGTCACTGACAGGTTATTGCATTTGGA FALSE

Same for TCATATATGTAAACAGGTGAAAGTCCGTAAGTTA FALSE

Same for TCTGCTAGGTCAACGATGGTCAGCAAATCTGCTA FALSE

====

Recorded measurements of PBM binding z-score, one per entry
Tested on: LXRa homodimer (NR concentration 270 nM)
Assay: PBM binding z-score (relative to random genomic background probes); higher = stronger binding; sequences stand for … in GC…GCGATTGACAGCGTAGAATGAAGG

Take a look at these entries with their results.
record-sequence	PBM binding z-score
TCTGCTAGGTCAAAGATGGTCAGCTAATCTGCTA	0.0702
CCTTACGGGTCACGAGGTTAAAGCACGACGAGCG	0.696
TCGAGTAGGTTACCAAGGGGGCATTCAGCTTTCT	0.768
ATATGTAGGTTATCGGGTCATTTAGTTTGCGCAT	2.41
TATAGTTGGTCACGGAGGTCACACACGACGGGTA	3.29

Continue with the next sequence.
Please state recorded PBM binding z-score (tested on LXRa homodimer (NR concentration 270 nM)) of CAAACTAGGTCATGAGGTCAAAGTCCGCTTCCCG 5.21

====

System: PPARg:RXRa (NR concentration 180 nM, RXRa partner concentration 90 nM)
Test: PBM binding z-score (relative to random genomic background probes); higher = stronger binding; sequences stand for … in GC…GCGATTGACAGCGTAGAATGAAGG
Recorded measurements of PBM binding z-score, one per entry
Please give the numeric answer without any surrounding text.

Take a look at these entries with their results.
record-sequence	observed-value
GCGACTGGGGCACCAGCAGGTTACCATAACTTAA	1.55
ATCGAAAGGTCGACGAGGGGAGTATACACCGTTT	2.47
ATTACAGGGTCACTAGGCCAGAGTAGGTACGAAT	8.17
ACTAGCAGGCGAAGTTTGGGTCACTCAAACAAAG	-0.19
CTACCAAGGTGAACAAGGTCATTGATTACTATTC	2.24
AATACAGGGTCATCGGAGGCCAGAGTACGCACAG	6.72
ACAATGAGGTTATACGTAGATCAGGGAAGAAAGT	1.84
CAGCCTAAGTCAGGGCCAGTATAGGAGGAACGTT	0.0918

Given the sequence GCTATTTGGTCAGTAAAAGGTCACACACCGGTCG , what is its reported PBM binding z-score? 3.46

Same for CCGACTGGAGCATAAGGTTACCATAAGCCAGCCC 0.85

Same for GCATATAGGTAATACAAGTTGAAAGTCCGATTGT 1.05

Same for AGAATGAGGTTATACGTAGAACAGGGAAGAAAGT 2.2
